TARGET UNDER TEST: T1, CD134 expressed on the cell surface of HT1080_OX40 cells (human, UniProt P43489 29-277)
T1 sequence (looked up): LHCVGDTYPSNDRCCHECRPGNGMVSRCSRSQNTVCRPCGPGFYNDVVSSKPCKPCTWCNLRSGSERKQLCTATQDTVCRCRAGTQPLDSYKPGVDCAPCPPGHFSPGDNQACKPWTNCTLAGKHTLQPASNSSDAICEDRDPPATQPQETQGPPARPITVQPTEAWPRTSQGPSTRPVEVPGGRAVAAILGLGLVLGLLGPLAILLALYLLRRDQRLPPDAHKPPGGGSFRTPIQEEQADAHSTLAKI
TEST DESCRIPTION: cell-based or functional assay
MEASURED METRIC: EC 50 (IL-8 release, cross-linked)

1. P018.S.03.A.E03 (antibody, V domains shown, V regions on human Ig constant parts; also called AB134_4) VH: QSVEESGGRLVTPGTPLTLTCTVSGFSLSTYGMSWVRQAPGKGLEWIGIIDAGDSPYYASWVKGRFTISKTSTTVDLKITSLTTEDTATYFCARIAGSNHGPFSLWGPGTLVTVSS VL: DVVMTQTPASVSEPVGGTVTINCQASEFISNYLAWYQQKPGQPPKLLIYGASTLASGVPSRFSGSGSGTQFTLTISDLESDDAATYYCQCTAYGSGYVGFGGGTEVVVK	529 ng/mL
2. P018.S.04.A.E06 (antibody, V domains shown, V regions on human Ig constant parts; also called AB134_11) VH: QSVEESGGRLVTPGTPLTLTCTVSGFSLSGYDMSWVRQAPGKGLEWIGYIYAGSTYYANWAKGRFTISKTSTTVDLKMTSPTTEDTATYFCTRVGAGYSGVWAYFNLWGPGTLVTVSS VL: AQVLTQTPSSVSAAVGGTVTINCQSSQSVDSDNYLAWYQQKPGQPPKLLIYDASKLASGVPSRFTGSGSGTQFTLTISGVQSDDAATYYCQGTYGNIGWYFAFGGGTEVVVK	1390 ng/mL
3. P018.S.04.A.G05 (antibody, V domains shown, V regions on human Ig constant parts; also called AB134_14) VH: QSVEESGGRLVTPGTPLTLTCTVSGFSLSTYYMSWVRQAPGKSLEWIGCIHGDDGSTWYASWVQGRFTISKASTTVDLQIASPTTEDTATYFCARGLPYWPNDGDFNLWGQGTLVTVSS VL: TQVLTQTPSPVSAAVGGTVSISCQSSQSVYNNNWLSWFQQKPGQPPKLLVYGASTLASGVPSRFKGSGSGTQFTLTISDLESDDAATYYCAGGYYTTSDNGFGGGTEVVVK	670 ng/mL
